Values compiled from PubChem BioAssay AID328.

- Tested on: BDF1 mice, P388 leukemia ip, median survival T/C
- Experiment: NCI In Vivo Anticancer Drug Screen. Data for tumor model P388 Leukemia (intraperitoneal) in B6D2F1 (BDF1) mice
- Run Conditions: endpoint: median survival time; dose: 400.0 mg/kg/injection; schedule: Q04DX003 (ip); vehicle: Klucel (hydroxypropylcellulose) (HPC); higher = longer survival
Toxic doses and inconclusive results are not listed.
Observation Type: T/C

Please review the following examples before continuing.
> print(dat)
                                   compound                                       tgt  observation.type        test.value
1  O=C(NNC(=O)c1ccc([N+](=O)[O-])cc1)c1ccccc1  BDF1 mice, P388 leukemia ip, median survival T/C               T/C  108 % of control
2       O=C(O)c1ccc(C(=O)c2ccccc2C(=O)O)cc1  BDF1 mice, P388 leukemia ip, median survival T/C               T/C  109 % of control
3            O=C(Nc1cc(Cl)ccc1Cl)c1ccccc1Cl  BDF1 mice, P388 leukemia ip, median survival T/C               T/C  100 % of control
4        O=[N+]([O-])c1ccc(/C=C/c2ncccn2)o1  BDF1 mice, P388 leukemia ip, median survival T/C               T/C  100 % of control
5  O=[N+]([O-])c1ccc(C(Br)C(Br)c2ccccc2Br)cc1 (stereo not drawn)  BDF1 mice, P388 leukemia ip, median survival T/C               T/C   90 % of control

// field: T/C; key: O=[N+]([O-])c1cc(Br)c(N2CCCC2)cc1N1CCCC1 ; value = 110 % of control

Input OC(C1CCCCC1)(C1CCCCC1)C1CCCCC1 . Output T/C: 91 % of control

Per the records, this compound ( CCCCCCCCCCCCOc1ccccc1C=O ) has T/C equal to 109 % of control

Just so you know, measured T/C for C=CC(C)(O)CCC1C(=C)CCC2C(C)(C)CCCC12C (stereo not drawn) came out at 95 % of control

Lab note: COc1ccc(CC(C(=O)O)C(Cc2ccc(OC)c(OC)c2)C(=O)O)cc1OC (stereo not drawn) gave T/C of 109 % of control

What the record says about CN(C)c1ccc(C=C(C#N)C#N)cc1 : T/C is 90 % of control

---

- Tested on: BDF1 mice, P388 leukemia ip, median survival T/C
- Experiment: NCI In Vivo Anticancer Drug Screen. Data for tumor model P388 Leukemia (intraperitoneal) in B6D2F1 (BDF1) mice
- Run Conditions: endpoint: median survival time; dose: 50.0 mg/kg/injection; schedule: Q01DX009 (ip); vehicle: saline
Inconclusive results and toxic doses are left out. How the source made its calls: active means survival T/C of 150% or more; inactive means T/C below 125% in these data.
Result category, one only: active, inactive

> print(dat)
                                   compound  assigned.category
1  CCN(CC)Cc1nccn1-c1ccc([N+](=O)[O-])cc1C(=O)c1ccccc1Cl           inactive
2  CCOC(=O)N1C=Cn2c(cnc2C)C1O (stereo unspecified)           inactive
3  O=C(O)C(CSC(c1ccccc1)(c1ccccc1)c1ccccc1)N=Cc1cccs1 (stereo unspecified)             active
4                     CC(C)OC(=O)C1(N)CCCC1           inactive
5              CN(C)Cc1ccc([N+](=O)[O-])cc1           inactive
6  CCOC(=O)C1CC[N+](=c2cc(-c3ccc(Cl)cc3)ss2)CC1 (stereo unspecified)           inactive
7                          Nc1nc2ccccc2nc1N           inactive
8  CCCC(N=Cc1ccccc1O)C(=O)O.CCCC(N=Cc1ccccc1O)C(=O)O.[Fe] (stereo unspecified)           inactive

Input line: Which outcome did this test record for the compound O=C1C=C(NCc2ccccc2)CCC1 ?
Output line: inactive

Input line: Could you please tell me the result logged for CN1N=Nc2cccc3cccc1c23 in this assay?
Output line: inactive

Input line: Query: recorded result category for CCn1c(O)c(C=N)c(=O)n(CC)c1=O in this test
Output line: inactive

Input line: Could you kindly confirm the outcome this assay logged for Cc1nn(C2CC(O)C(O)C(CO)O2)c(=O)[nH]c1=O (stereo unspecified) ?
Output line: inactive

Input line: Recorded test call requested for COC(C)C(NC(=O)C1CCCN1C)C1OC(SCCOC(=O)c2ccccc2O)C(O)C(O)C1O (stereo unspecified)
Output line: inactive

Input line: Hi team, can someone confirm the assay call for O=C(c1ccccc1)N1CCC2OC2C1 (stereo unspecified) ?
Output line: inactive

Input line: Field: outcome | Entry: CCCCCCCCNC(=O)C1OC(n2cnc3c(N)ncnc32)C(O)C1O (stereo unspecified)
Output line: inactive

Input line: For O=C(O)C1(O)C(Cl)(Cl)C(Cl)=C(Cl)C1(Cl)Cl , which call appears in the assay record?
Output line: inactive

Input line: How did this test come out for Cc1c[n+]([O-])ccc1[N+](=O)[O-] ?
Output line: inactive

Input line: In this assay, the call recorded for COc1ccc(C(C#N)CC(=O)c2ccc(OC)c(OCc3ccccc3)c2)cc1OC (stereo unspecified) was what?
Output line: inactive

Input line: I would be grateful if you could indicate the recorded call for COC1=NCN=C2SC=C(N)N=C12 .
Output line: inactive

Input line: What did this assay record as the result for O=C1NC(=O)C(c2ccccc2)(c2ccccc2)N1CCS ?
Output line: inactive

Input line: What did the test return for O=[n+]1ccn2ccccc2c1 ?
Output line: inactive

Input line: # fetch the recorded call for O=C(O)C1C2C=CC(C3C=CC32)C1C(=O)O (stereo unspecified) here
Output line: inactive

Input line: Recorded test outcome, item CC1CN1P(=O)(OCCC#N)N1CC1C (stereo unspecified)
Output line: inactive

Input line: Dear colleague, could you share the recorded outcome for CCN(CC)CCN1C(=O)c2cccc3cccc(c23)C1=O when you have a moment?
Output line: inactive

Input line: // param item: CCOC(=O)CN(C)C#N ; yields the recorded call
Output line: inactive

Input line: Each compound tested received a call. Report the one for COc1cc2c(c(OC)c1OC)-c1ccc(SC)c(=O)cc1[C@@H](NC1OC(CO)C(O)C(O)C1O)CC2 (stereo partly specified) .
Output line: active
